Origin of the recorded values: patent US12606543B2

Property: Emax (% of serotonin); scope: individual compounds
# Tgt: human 5-HT2A receptor (Homo sapiens, UniProt P28223)
# Construct: expressed in transfected cells; host or cells: U2OS
# Sequence (P28223 whole entry): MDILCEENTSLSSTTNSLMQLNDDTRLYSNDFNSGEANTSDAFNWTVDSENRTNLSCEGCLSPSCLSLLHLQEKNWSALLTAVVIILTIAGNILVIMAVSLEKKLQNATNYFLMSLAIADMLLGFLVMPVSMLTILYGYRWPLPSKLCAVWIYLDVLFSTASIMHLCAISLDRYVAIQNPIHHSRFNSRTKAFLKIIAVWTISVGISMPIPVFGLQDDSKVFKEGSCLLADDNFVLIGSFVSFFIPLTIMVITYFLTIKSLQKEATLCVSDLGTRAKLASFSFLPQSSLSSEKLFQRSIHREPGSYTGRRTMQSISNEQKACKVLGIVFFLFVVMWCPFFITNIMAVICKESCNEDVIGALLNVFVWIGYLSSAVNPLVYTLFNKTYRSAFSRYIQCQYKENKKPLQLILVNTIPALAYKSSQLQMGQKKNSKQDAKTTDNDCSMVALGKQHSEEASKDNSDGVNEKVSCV
# Procedure Details: Human 5-HT2A β-arrestin reporter assay
# Assay type: cell-based
# Measurement Conditions: β-arrestin reporter, U2OS cells; relative to maximum response of serotonin

Compound	Emax (% of serotonin)
COCCN1CCC[C@@H]1Cc1c[nH]c2ccc(OC)cc12 [(R) I-98]	81.67 % of serotonin
[2H]C([2H])(c1c[nH]c2ccc(OCCCCCN3C(=O)c4ccccc4C3=O)cc12)[C@H]1CCCN1C([2H])([2H])[2H] [(R) I-245]	82.18 % of serotonin
CSc1ccc2[nH]cc(C[C@H]3CCCN3C)c2c1 [(R) I-1]	79.27 % of serotonin
[2H]C([2H])(c1c[nH]c2ccc(OCCCCCN3C(=O)[C@H]4CCCC[C@H]4C3=O)cc12)[C@H]1CCCN1C([2H])([2H])[2H] [Cis (R) I-248]	84.4 % of serotonin
CN(C)CCc1c[nH]c2ccccc12	38.86 % of serotonin
[2H]C([2H])(c1c[nH]c2ccc(OCCCCN3C(=O)c4ccccc4C3=O)cc12)[C@H]1CCCN1C([2H])([2H])[2H] [(R) I-244]	79.58 % of serotonin
